# TARGET SYSTEM: T1, rhCD73 bound to his-tag magnet beads (human, UniProt P21589 27-549, limits assumed)
# T1 sequence: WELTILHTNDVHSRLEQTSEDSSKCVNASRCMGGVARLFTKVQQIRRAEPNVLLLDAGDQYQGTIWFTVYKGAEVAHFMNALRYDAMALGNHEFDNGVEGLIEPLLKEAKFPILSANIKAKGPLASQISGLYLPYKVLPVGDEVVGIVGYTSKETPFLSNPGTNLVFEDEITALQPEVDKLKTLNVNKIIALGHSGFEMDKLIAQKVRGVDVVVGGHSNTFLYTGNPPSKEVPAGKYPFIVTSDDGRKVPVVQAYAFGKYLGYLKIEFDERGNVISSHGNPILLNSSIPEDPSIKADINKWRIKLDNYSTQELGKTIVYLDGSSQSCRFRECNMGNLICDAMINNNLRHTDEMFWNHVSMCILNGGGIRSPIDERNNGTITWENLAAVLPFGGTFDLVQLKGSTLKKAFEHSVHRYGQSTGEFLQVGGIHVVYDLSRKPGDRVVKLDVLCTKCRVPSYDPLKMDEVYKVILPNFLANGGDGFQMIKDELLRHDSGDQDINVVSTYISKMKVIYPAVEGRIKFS
# ASSAY METHOD TEXT: cell-based or functional assay
Below: a set of entries, each annotated with reported EC50 (nM), inhibition of bead-bound rhCD73 enzymatic activity.
A number alone suffices; assume nM.

{"BINDER": "24H2 (antibody, human IgG4, kappa, V domains shown, also called 24H2-1) VH: QVQLVESGGGVVQPGRSLRLSCAASGFTFSNYGMHWVRQAPGKGLEWVAVIWYDGGNKYYADSVKGRFTISRDNSKNTLFLQMNSLRAEDTAVYYCARGGSSWYPDAFDIWGQGTMVTVSS VL: DIQMTQSPSSLSASVGDRVTITCRASQGISSWLAWYQQKPEKAPKSLIYAASSLQSGVPSRFSGSGSGTDFTLTISSLQPEDFATYYCQQYNSYPLTFGGGTKVEIKR", "NUMERIC READOUT": 4.18}
{"BINDER": "7A11 (antibody, human IgG1, kappa, V domains shown, IgG1za from hybridoma; also called 7A11-1) VH: EVQLVESGGGLVQTGRSLRLSCAASGFTFDDYAMHWVRQAPGKGLEWVSDISWNSDIIGYADSVKGRFTISRDNAKNSLYLQMNSLRAEDTALYYCAKDIYGSGSSFFDYWGQGILVTVSS VL: DIQMTQSPSSLSASVGDRVTITCRASQYISSWLAWYQQKPEKAPKSLIYAASSLQSGVPSRFSGSGSGTDFTLTISSLQPEDFATYYCQQYHSYPPTFGQGTRLEIKR", "NUMERIC READOUT": 2.86}

Field: next binder
Item: 11F11 (antibody, human IgG2, kappa, V domains shown, Human IgG2 from hybridoma) VH: QVQLVESGGGVVQPGRSLRLSCATSGFTFSNYGMHWVRQAPGKGLEWVAVILYDGSNKYYPDSVKGRFTISRDNSKNTLYLQMNSLRAEDTAVYYCARGGSSWYPDSFDIWGQGTMVTVSS VL: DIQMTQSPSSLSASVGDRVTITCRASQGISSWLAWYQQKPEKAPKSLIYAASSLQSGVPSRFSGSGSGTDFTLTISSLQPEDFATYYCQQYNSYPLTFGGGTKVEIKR | EC50 (nM), inhibition of bead-bound rhCD73 enzymatic activity: 3.98

Where do these numbers come from? They come from patent US20230051701A1.
